Hello, the source for this data is patent US20220251194A1, in case you need it.

target: T1, polyhistidine-tagged human PD-1 (hPD1-His, 98AFK) (human, UniProt Q15116 25-167, limits assumed); test: SPR solution affinity (Biacore T200, competition mode, equilibrium titration)
T1 construct: also called human PD1-His; Human PD-1-His
T1 sequence (Q15116 25-167 limits assumed): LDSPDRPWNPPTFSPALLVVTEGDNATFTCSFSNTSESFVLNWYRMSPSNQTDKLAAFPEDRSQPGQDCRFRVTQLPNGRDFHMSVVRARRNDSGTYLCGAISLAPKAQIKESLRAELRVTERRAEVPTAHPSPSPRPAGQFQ
# Kd listing for each entry below
Value expressed in nM; do not type the unit.

For orientation, consider the following solved cases.
Humanized 08A IgG4 S61N G56A (antibody, V domains shown, IgG4 S228P / kappa; also called 51AQK; Humanized x [PD-1_H] mAb (08A/HuPD1A-11 S61N VH G56A / VL) IgG4 S228P / Kappa) VH: EVQLVQSGAEVKKPGASVKVSCKASGYTFTSYYLYWVRQAPGQGLEWIGGVNPSNAGTNFNEKFKSRVTLTVDTSISTAYMELSRLRSDDTAVYYCTRRDSNYDGGFDYWGQGTTVTVSS VL: DIVMTQTPLSLSVTPGQPASISCRASKSVSTSGFSYLHWYLQKPGQPPQLLIFLASNLESGVPDRFSGSGSGTDFTLKISRVEAEDVGVYYCQHSWELPLTFGQGTKLEIKR	0.033
Humanized 08A IgG4 G56A (antibody, V domains shown, IgG4 S228P / kappa; also called 89AVZ; Humanized x [PD-1_H] mAb (08A/HuPD1A-11 G56A) IgG4 S228P / Kappa) VH: EVQLVQSGAEVKKPGASVKVSCKASGYTFTSYYLYWVRQAPGQGLEWIGGVNPSNAGTNFSEKFKSRVTLTVDTSISTAYMELSRLRSDDTAVYYCTRRDSNYDGGFDYWGQGTTVTVSS VL: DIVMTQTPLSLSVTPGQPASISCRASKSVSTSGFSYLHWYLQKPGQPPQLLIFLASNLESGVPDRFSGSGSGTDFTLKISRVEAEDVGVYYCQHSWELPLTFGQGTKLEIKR	0.056

Shifting focus to the binder that follows.
Form field Kd, entry Humanized 08A IgG4 Fab 098 G56A (antibody, V domains shown, IgG4 S228P / kappa; also called 90AVZ) VH: EVQLVQSGAEVKKPGASVKVSCKASGYTFTSYYLYWVRQAPGQGLEWIGGVNPSNAGTNFSEKFKSRVTLTVDTSISTAYMELSRLRSDDTAVYYCTRRLSHYDGGFDYWGQGTTVTVSS VL: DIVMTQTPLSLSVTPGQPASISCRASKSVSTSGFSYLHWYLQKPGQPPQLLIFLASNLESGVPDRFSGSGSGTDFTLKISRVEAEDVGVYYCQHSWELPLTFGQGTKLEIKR : 0.019
